molecular target: Amyloid-beta precursor protein (Homo sapiens); test: Inhibition of Amyloid beta (1 to 42) (unknown origin) aggregation assessed as reduction in experimental fluorescence platea at 10 to 1 ratio of compound to amyloid beta (1 to 42) incubated for 48 hrs fluorescence-detected ThT-binding assay; design: scale not given: the % may be the effect or the level left
Starred links: 1 amine or outer side, 2 acyl side, 3 side chain; linkers in the order of their positions; H or OH if unused. Non-standard residues stand in square brackets, D forms with d. Residues, ends and D or L forms follow the SMILES beside them. X3 = C[C@H](O)CN(N[*:1])C(=O)NN(CCCCN)C(=O)[*:2]
Measure name: Activity (%)
Respond with the bare value in %.

Need Activity of CC(=O)NN(C[C@H](C)O)C(=O)NN(CCCCN)C(=O)N[C@@H](CO)C(=O)N[C@@H](Cc1ccc(O)cc1)C(=O)N[C@@H](Cc1c[nH]c2ccccc12)C(=O)N[C@@H](CCCCN)C(=O)N[C@@H](C)C(=O)N[C@@H](CC(C)C)C(=O)NCC(N)=O (Ac-[X3]SYWKALG-NH2) , thanks. 36

Need Activity of CC(=O)N[C@H](C(=O)N[C@@H](CCCCN)C(=O)N[C@@H](CO)C(=O)NN(Cc1ccc(O)cc1)C(=O)NN(CCc1c[nH]c2ccccc12)C(=O)N[C@@H](CCCCN)C(=O)N[C@@H](C)C(=O)N[C@@H](CC(C)C)C(=O)NCC(N)=O)[C@@H](C)O , thanks. 56

Need Activity of CC(=O)NN(C[C@H](C)O)C(=O)NN(CCCCN)C(=O)N[C@@H](CO)C(=O)NN(Cc1ccc(O)cc1)C(=O)NN(CCc1c[nH]c2ccccc12)C(=O)N[C@@H](CCCCN)C(=O)NN(C)C(=O)NN(CC(C)C)C(=O)NCC(N)=O , thanks. 41

Need Activity of CC(=O)NN(C[C@H](C)O)C(=O)NN(CCCCN)C(=O)N[C@@H](CO)C(=O)NN(Cc1ccc(O)cc1)C(=O)NN(CCc1c[nH]c2ccccc12)C(=O)N[C@@H](CCCCN)C(=O)N[C@@H](C)C(=O)N[C@@H](CC(C)C)C(=O)NCC(N)=O , thanks. 62

---

target: Amyloid-beta precursor protein (Homo sapiens) (UniProt P05067); assay: Inhibition of Amyloid beta (1 to 42) (unknown origin) aggregation assessed as reduction in experimental fluorescence platea at 10 to 1 ratio of compound to amyloid beta (1 to 42) incubated for 48 hrs fluorescence-detected ThT-binding assay; set-up: scale not given: the % may be the effect or the level left
Sequence (P05067 whole entry): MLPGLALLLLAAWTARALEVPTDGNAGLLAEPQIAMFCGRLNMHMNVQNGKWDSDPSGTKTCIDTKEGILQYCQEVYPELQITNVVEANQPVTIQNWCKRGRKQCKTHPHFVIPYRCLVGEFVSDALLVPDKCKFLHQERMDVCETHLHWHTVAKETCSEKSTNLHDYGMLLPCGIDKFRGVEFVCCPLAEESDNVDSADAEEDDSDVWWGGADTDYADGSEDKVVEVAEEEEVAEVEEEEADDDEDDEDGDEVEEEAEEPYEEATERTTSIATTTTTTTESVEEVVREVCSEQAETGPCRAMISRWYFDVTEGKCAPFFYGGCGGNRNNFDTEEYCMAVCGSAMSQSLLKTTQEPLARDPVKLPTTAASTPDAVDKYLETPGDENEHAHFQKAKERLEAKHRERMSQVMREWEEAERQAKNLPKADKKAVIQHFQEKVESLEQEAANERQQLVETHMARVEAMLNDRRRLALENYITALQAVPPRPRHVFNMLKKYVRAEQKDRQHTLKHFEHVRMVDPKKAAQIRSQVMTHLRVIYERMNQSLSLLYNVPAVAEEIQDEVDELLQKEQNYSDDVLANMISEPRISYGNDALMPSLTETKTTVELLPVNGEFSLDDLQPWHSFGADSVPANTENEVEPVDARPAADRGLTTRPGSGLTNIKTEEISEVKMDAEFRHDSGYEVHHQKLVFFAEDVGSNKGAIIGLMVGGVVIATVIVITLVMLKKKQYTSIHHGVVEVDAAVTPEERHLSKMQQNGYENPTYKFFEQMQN
Starred links: 1 amine or outer side, 2 acyl side, 3 side chain; linkers in the order of their positions; H or OH if unused. Non-standard residues stand in square brackets, D forms with d. Residues, ends and D or L forms follow the SMILES beside them. *: point of attachment. X2 = CC(C)CN(NC(=O)N(C)N[*:1])C(=O)[*:2]; X1 = C[C@H](O)CN(N)C(=O)NN(CCCCN)C(=O)*
In this section, each of the molecules is paired with its reported Activity.
Your answer should be a number followed by the unit of measure.

Example entries and their recorded answers appear below.
Need Activity of CC(=O)N[C@H](C(=O)N[C@@H](CCCCN)C(=O)N[C@@H](CO)C(=O)NN(Cc1ccc(O)cc1)C(=O)NN(CCc1c[nH]c2ccccc12)C(=O)N[C@@H](CCCCN)C(=O)NN(C)C(=O)NN(CC(C)C)C(=O)NCC(N)=O)[C@@H](C)O , thanks. 55%

Need Activity of CC(C)CN(NC(=O)N(C)NC(=O)[C@H](CCCCN)NC(=O)[C@H](Cc1c[nH]c2ccccc12)NC(=O)[C@H](Cc1ccc(O)cc1)NC(=O)[C@H](CO)NC(=O)N(CCCCN)NC(=O)N(N)C[C@H](C)O)C(=O)NCC(N)=O (X1-SYWK[X2]G-NH2) , thanks. 57%

Need Activity of CC(C)CN(NC(=O)N(C)NC(=O)[C@H](CCCCN)NC(=O)[C@H](Cc1c[nH]c2ccccc12)NC(=O)[C@H](Cc1ccc(O)cc1)NC(=O)[C@H](CO)NC(=O)[C@H](CCCCN)NC(=O)[C@@H](N)[C@@H](C)O)C(=O)NCC(N)=O (H-TKSYWK[X2]G-NH2) , thanks. 60%

Attention now shifts to the item below.
Need Activity of CC(C)C[C@H](NC(=O)[C@H](C)NC(=O)[C@H](CCCCN)NC(=O)[C@H](Cc1c[nH]c2ccccc12)NC(=O)[C@H](Cc1ccc(O)cc1)NC(=O)[C@H](CO)NC(=O)N(CCCCN)NC(=O)N(N)C[C@H](C)O)C(=O)NCC(N)=O (X1-SYWKALG-NH2) , thanks. 54%
